Reference for the values: patent US20220024882A1

Known PC-3 PIP Tumor of a selection of compounds
System: PC-3 PIP/flu tumor-bearing mice
Measurement Protocol: Biodistribution study in PC-3 PIP/flu tumor-bearing mice
Type: in vivo, athymic nude Balb/c mice
Settings: 24 h p.i., PSMA-positive tumor xenograft, mice

[
  {
    "Compound": "CC(C)Cc1ccc(C(C)C(=O)NC(CC(N)=O)C(=O)NCCCCC(NC(=O)CN2CCN(CC(=O)O)CCN(CC(=O)O)CCN(CC(=O)O)CC2)C(=O)NCC2CCC(C(=O)NC(Cc3ccc4ccccc4c3)C(=O)NCCCCC(NC(=O)NC(CCC(=O)O)C(=O)O)C(=O)O)CC2)cc1 (stereo not drawn) [^177Lu-Ibu-N-PSMA, metal not drawn]",
    "Target": "PC-3 PIP/flu tumor-bearing mice",
    "PC-3 PIP Tumor, % IA/g": 58.0
  },
  {
    "Compound": "CC(C)Cc1ccc(C(C)C(=O)NC(CC(=O)NCCCCC(NC(=O)CN2CCN(CC(=O)O)CCN(CC(=O)O)CCN(CC(=O)O)CC2)C(=O)NCC2CCC(C(=O)NC(Cc3ccc4ccccc4c3)C(=O)NCCCCC(NC(=O)NC(CCC(=O)O)C(=O)O)C(=O)O)CC2)C(=O)O)cc1 (stereo not drawn) [^177Lu-Ibu-Dβ-PSMA, metal not drawn]",
    "Target": "PC-3 PIP/flu tumor-bearing mice",
    "PC-3 PIP Tumor, % IA/g": 106
  },
  {
    "Compound": "CC(C)Cc1ccc(C(C)C(=O)NCC[C@H](NC(=O)CN2CCN(CC(=O)O)CCN(CC(=O)O)CCN(CC(=O)O)CC2)C(=O)NCC2CCC(C(=O)N[C@@H](Cc3ccc4ccccc4c3)C(=O)NCCCC[C@H](NC(=O)N[C@@H](CCC(=O)O)C(=O)O)C(=O)O)CC2)cc1 (stereo partly drawn) [^177Lu-Ibu-sPSMA, metal not drawn]",
    "Target": "PC-3 PIP/flu tumor-bearing mice",
    "PC-3 PIP Tumor, % IA/g": 132
  }
]
